test system: POLCO; assay: Post-emergence action at 320 g/ha against POLCO; type: in vivo, Fallopia convolvulus (Polygonum convolvulus); conditions: visual rating about 3 weeks after treatment vs untreated controls
For each of the molecules below, state its Post-emergence action against POLCO in %.

Quick note, Post-emergence action against POLCO in % for COC(=O)C(C)Oc1nn(-c2ccccc2)c(-c2ccc(F)nc2)c1Br (stereo not shown) [VII-026] landed at 90%

Quick note, Post-emergence action against POLCO in % for O=C(O)COc1nn(-c2ccccc2F)c(-c2cncc(F)c2)c1Br [VII-025] landed at 90%

Quick note, Post-emergence action against POLCO in % for CCOC(=O)COc1nn(-c2ccccc2F)c(-c2cncnc2)c1Br [VI-001] landed at 90%

Quick note, Post-emergence action against POLCO in % for COC(=O)C(C)Oc1nn(-c2ccccc2)c(-c2cccnc2)c1Cl (stereo not shown) [VII-032] landed at 80%

Quick note, Post-emergence action against POLCO in % for CS(=O)(=O)NC(=O)COc1nn(-c2ccccc2F)c(-c2ccc(F)nc2)c1Br [Example X-004] landed at 80%

Quick note, Post-emergence action against POLCO in % for COC(=O)C(C)Oc1nn(-c2ccccc2)c(-c2ccnc(Cl)c2)c1Cl (stereo not shown) [VIII-001] landed at 90%

Quick note, Post-emergence action against POLCO in % for COC(=O)CNC(=O)COc1nn(-c2ccccc2F)c(-c2ccc(F)nc2)c1Br [Example X-002] landed at 90%

Quick note, Post-emergence action against POLCO in % for COC(=O)CCOC(=O)COc1nn(-c2ccccc2F)c(-c2ccc(F)nc2)c1Br [VII-111] landed at 90%

Quick note, Post-emergence action against POLCO in % for COC(=O)COc1nn(-c2ccc(F)cc2)c(-c2ccc(F)nc2)c1Br [VII-002] landed at 80%

Quick note, Post-emergence action against POLCO in % for COC(=O)C(C)Oc1nn(-c2ccccc2)c(-c2ccc(F)nc2)c1Br (stereo not shown) [VII-014] landed at 80%

Quick note, Post-emergence action against POLCO in % for CCOC(=O)COc1nn(-c2ccccc2F)c(-c2ccc(F)nc2)c1F [VII-034] landed at 80%

Quick note, Post-emergence action against POLCO in % for COC(=O)COc1nn(-c2ccccc2F)c(-c2ccc(F)nc2)c1C(F)(F)F [VII-031] landed at 90%

Quick note, Post-emergence action against POLCO in % for CCOC(=O)COc1nn(-c2ccccc2F)c(-c2ccnc(F)c2)c1Br [VIII-002] landed at 80%

Quick note, Post-emergence action against POLCO in % for COC(=O)COc1nn(-c2ccccc2F)c(-c2ccc(F)nc2)c1Br [VII-001] landed at 80%

Quick note, Post-emergence action against POLCO in % for COC(=O)COc1nn(-c2ccccc2F)c(-c2cncc(F)c2)c1Br [VII-035] landed at 90%

Quick note, Post-emergence action against POLCO in % for CCOC(=O)COc1nn(-c2ccccc2F)c(-c2cncc(F)c2)c1Br [VII-015] landed at 100%

Quick note, Post-emergence action against POLCO in % for CCOC(=O)COc1nn(-c2ccccc2F)c(-c2ccc(F)nc2)c1C(F)(F)F [VII-010] landed at 80%

Quick note, Post-emergence action against POLCO in % for O=C(O)COc1nn(-c2ccccc2F)c(-c2ccnc(F)c2)c1Br [VIII-004] landed at 80%

Quick note, Post-emergence action against POLCO in % for COC(=O)COc1nn(-c2ccccc2)c(-c2ccc(F)nc2)c1Br [VII-018] landed at 90%
